System: Escherichia coli TOP10
Assay: shrunken log2 fold change of peptide-encoding DNA abundance (4.5 h post-induction vs induction); higher = less antimicrobial activity (less host growth inhibition)
Details: time post-induction: 4.5 h; library: site-saturation at positions 5, 18, 19, 20
shrunken log2 fold change values, listed per item
EXPERIMENTAL ENDPOINT: shrunken log2 fold change

1. RRIRARPPRLPRPRPRPYGYPRP = -0.294
2. RRIRFRPPRLPRPRPRPDAEPRP = 0.373
3. RRIRWRPPRLPRPRPRPCDYPRP = -0.0182
4. RRIRRRPPRLPRPRPRPYALPRP = -0.5
5. RRIRQRPPRLPRPRPRPMDTPRP = -0.031
6. RRIRARPPRLPRPRPRPHWQPRP = 0.124
7. RRIRYRPPRLPRPRPRPFKCPRP = -0.135
8. RRIRARPPRLPRPRPRPKCIPRP = 0.0328
9. RRIRWRPPRLPRPRPRPMKNPRP = 0.226
10. RRIRTRPPRLPRPRPRPSLCPRP = -0.0129
11. RRIRPRPPRLPRPRPRPMHKPRP = 0.0775
12. RRIRSRPPRLPRPRPRPCRNPRP = -0.273
13. RRIRWRPPRLPRPRPRPLTWPRP = 0.302
14. RRIRERPPRLPRPRPRPLTHPRP = -0.413
15. RRIRSRPPRLPRPRPRPHAHPRP = -0.32

###

shrunken log2 fold change values, listed per item
Test system: Escherichia coli TOP10
Experiment: shrunken log2 fold change of peptide-encoding DNA abundance (4.5 h post-induction vs induction); higher = less antimicrobial activity (less host growth inhibition)
Conditions: time post-induction: 4.5 h; library: site-saturation at positions 5, 18, 19, 20
EXPERIMENTAL ENDPOINT: shrunken log2 fold change

1) RRIRNRPPRLPRPRPRPGMHPRP = -0.015
2) RRIRNRPPRLPRPRPRPYLLPRP = -0.27
3) RRIRPRPPRLPRPRPRPVIFPRP = -0.11
4) RRIRVRPPRLPRPRPRPCMGPRP = -0.234
5) RRIRYRPPRLPRPRPRPIWQPRP = -0.105
6) RRIRRRPPRLPRPRPRPLYDPRP = -0.0854
7) RRIRWRPPRLPRPRPRPGYEPRP = 0.00228
8) RRIRDRPPRLPRPRPRPWTKPRP = 0.0467
9) RRIRQRPPRLPRPRPRPKNYPRP = -0.216
10) RRIRDRPPRLPRPRPRPIMKPRP = -0.195
11) RRIRVRPPRLPRPRPRPNCQPRP = -0.1
12) RRIRSRPPRLPRPRPRPMEPPRP = 0.0473
13) RRIRVRPPRLPRPRPRPGVSPRP = -0.141
14) RRIRCRPPRLPRPRPRPIRSPRP = -0.389
15) RRIRVRPPRLPRPRPRPALYPRP = 0.22
16) RRIRKRPPRLPRPRPRPIPWPRP = 0.466
17) RRIRKRPPRLPRPRPRPCWSPRP = 0.00256
18) RRIRPRPPRLPRPRPRPLGLPRP = -0.124
19) RRIRERPPRLPRPRPRPAGCPRP = -0.0935
20) RRIRDRPPRLPRPRPRPVRNPRP = 0.282
21) RRIRWRPPRLPRPRPRPPTMPRP = 0.264
22) RRIRSRPPRLPRPRPRPKQCPRP = 0.14
23) RRIRLRPPRLPRPRPRPISCPRP = -0.0691
24) RRIRARPPRLPRPRPRPKGWPRP = 0.862
25) RRIRQRPPRLPRPRPRPHVKPRP = -0.274
26) RRIRVRPPRLPRPRPRPHYAPRP = -0.0814
27) RRIRYRPPRLPRPRPRPIDDPRP = -1.19
28) RRIRIRPPRLPRPRPRPNRVPRP = -0.0802
29) RRIRIRPPRLPRPRPRPNWWPRP = 0.159
30) RRIRHRPPRLPRPRPRPYKSPRP = -0.00494
31) RRIRFRPPRLPRPRPRPKLCPRP = -0.14
32) RRIRLRPPRLPRPRPRPVSHPRP = 0.0743

###

Tested on: Escherichia coli TOP10
Assay: shrunken log2 fold change of peptide-encoding DNA abundance (4.5 h post-induction vs induction); higher = less antimicrobial activity (less host growth inhibition)
Settings: time post-induction: 4.5 h; library: site-saturation at positions 5, 18, 19, 20
EXPERIMENTAL ENDPOINT: shrunken log2 fold change

1) RRIRWRPPRLPRPRPRPNWIPRP = 0.149
2) RRIRYRPPRLPRPRPRPPQWPRP = 0.204
3) RRIRQRPPRLPRPRPRPGNIPRP = -0.151
4) RRIRWRPPRLPRPRPRPFEKPRP = 0.0683
5) RRIRLRPPRLPRPRPRPYERPRP = -0.148
6) RRIRCRPPRLPRPRPRPWWRPRP = 0.157
7) RRIRARPPRLPRPRPRPCHYPRP = -0.00197
8) RRIRKRPPRLPRPRPRPLLHPRP = 0.108
9) RRIRPRPPRLPRPRPRPGHCPRP = 0.0859
10) RRIRERPPRLPRPRPRPYKLPRP = -1.4
11) RRIRKRPPRLPRPRPRPGSQPRP = 0.359
12) RRIRCRPPRLPRPRPRPETMPRP = -0.0663
13) RRIRNRPPRLPRPRPRPAWVPRP = 0.147
14) RRIRFRPPRLPRPRPRPHCKPRP = -0.112
15) RRIRTRPPRLPRPRPRPLCHPRP = -0.175
16) RRIRARPPRLPRPRPRPDMWPRP = 0.422
17) RRIRNRPPRLPRPRPRPNWIPRP = -0.0612
18) RRIRPRPPRLPRPRPRPHFLPRP = -0.168
19) RRIRTRPPRLPRPRPRPRVEPRP = 0.073
20) RRIRWRPPRLPRPRPRPKEFPRP = -0.228
21) RRIRERPPRLPRPRPRPTETPRP = -0.00327
22) RRIRQRPPRLPRPRPRPRIGPRP = 0.341
23) RRIRKRPPRLPRPRPRPYWGPRP = -0.000921
24) RRIRWRPPRLPRPRPRPMGQPRP = 0.0149
25) RRIRPRPPRLPRPRPRPPRSPRP = 0.518
26) RRIRSRPPRLPRPRPRPPCIPRP = -0.105
27) RRIRERPPRLPRPRPRPAMMPRP = -0.163
28) RRIRSRPPRLPRPRPRPHNEPRP = -0.382
29) RRIRDRPPRLPRPRPRPAWNPRP = 0.428
30) RRIRIRPPRLPRPRPRPAQQPRP = -0.0315
31) RRIRVRPPRLPRPRPRPDGLPRP = 0.0431
32) RRIRYRPPRLPRPRPRPKTRPRP = -0.142

###

Test system: Escherichia coli TOP10;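 also: peptides expressed intracellularly from a pBAD plasmid library in pooled LB shake-flask culture, induced with 0.3% L-arabinose, DNA abundance read by NGS, three biological replicates, DESeq2 with apeglm shrinkage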
Assay: shrunken log2 fold change of peptide-encoding DNA abundance (4.5 h post-induction vs induction); higher = less antimicrobial activity (less host growth inhibition)
Conditions: time post-induction: 4.5 h; library: site-saturation at positions 5, 18, 19, 20
Classes by shrunken log2 fold change: interval 1: < -0.07; interval 2: ≥ -0.07 and < 0.07; interval 3: ≥ 0.07

1) RRIRRRPPRLPRPRPRPKKDPRP = interval 3
2) RRIRPRPPRLPRPRPRPKVMPRP = interval 3
3) RRIRYRPPRLPRPRPRPGRKPRP = interval 1
4) RRIRNRPPRLPRPRPRPQDDPRP = interval 2
5) RRIRCRPPRLPRPRPRPMPPPRP = interval 3
6) RRIRKRPPRLPRPRPRPDVCPRP = interval 2
7) RRIRIRPPRLPRPRPRPYFDPRP = interval 1
8) RRIRKRPPRLPRPRPRPQVKPRP = interval 2
9) RRIRFRPPRLPRPRPRPPLQPRP = interval 3
10) RRIRNRPPRLPRPRPRPQVDPRP = interval 1
11) RRIRARPPRLPRPRPRPYDVPRP = interval 1
12) RRIRKRPPRLPRPRPRPIMWPRP = interval 2
13) RRIRLRPPRLPRPRPRPDVRPRP = interval 2
14) RRIRHRPPRLPRPRPRPIGEPRP = interval 2
15) RRIRCRPPRLPRPRPRPEYPPRP = interval 3
16) RRIRRRPPRLPRPRPRPYNLPRP = interval 1
17) RRIRPRPPRLPRPRPRPPFMPRP = interval 3
18) RRIRMRPPRLPRPRPRPIMYPRP = interval 1
19) RRIRYRPPRLPRPRPRPASCPRP = interval 1
20) RRIRDRPPRLPRPRPRPHETPRP = interval 1
21) RRIRFRPPRLPRPRPRPWTHPRP = interval 2
22) RRIRFRPPRLPRPRPRPSYAPRP = interval 1
23) RRIRFRPPRLPRPRPRPLQKPRP = interval 1
24) RRIRKRPPRLPRPRPRPAHEPRP = interval 3
25) RRIRCRPPRLPRPRPRPPNDPRP = interval 3
26) RRIRYRPPRLPRPRPRPMYVPRP = interval 2
27) RRIRTRPPRLPRPRPRPGTEPRP = interval 3
28) RRIRNRPPRLPRPRPRPMESPRP = interval 2
29) RRIRRRPPRLPRPRPRPGERPRP = interval 3
30) RRIRLRPPRLPRPRPRPYSYPRP = interval 1
31) RRIRKRPPRLPRPRPRPTWNPRP = interval 3
32) RRIRFRPPRLPRPRPRPEMYPRP = interval 2
